ASSAY_DETAILS: yeast display, Sf9 membrane polyspecificity reagent, FACS + sequencing; frameworks hold sequencing errors
ENDPOINT_LABEL: polyreactivity (PSR sort gate)

seq_string=QVQLVESGGGLVQAGGSLRLSCADSGYTFGTYAMGWYIKAPGKERELVAAISNSGGSTYYADSVKGRFTISRDNAKNTVYLQMNSLKPEDTAVYYFNTDGLVRNGPFYSWGLGTQVTVSS endpoint_label="polyreactivity (PSR sort gate)" value="low polyreactivity"
seq_string=QVQLVESGGGLVQAGGSLRLSCAASGSIFNVNTMGWYRQAPGKERELVAAISYSGGSTYYADSVKGRFTISRDTAKNTVYLQMNSLKPEDTAVYYCAAESYIEYYLKYDYWGQGTQVTVSS endpoint_label="polyreactivity (PSR sort gate)" value="low polyreactivity"
seq_string=QLQLVESGGGLDQAGCSLRLSCAASRTIITRNAMGWYRPAPGKESELVASINSGGSTYYADSVKGRFTISRDNAKNTVYLQMNSLKPDDTAVYYCAVEEDRYYYDDYDYWGQGTQVTVSS endpoint_label="polyreactivity (PSR sort gate)" value="low polyreactivity"
